# assayed system: Mitogen-activated protein kinase kinase kinase 20 (ZAK) (Homo sapiens) (UniProt Q9NYL2)
# Sequence (Q9NYL2 whole entry, looked up): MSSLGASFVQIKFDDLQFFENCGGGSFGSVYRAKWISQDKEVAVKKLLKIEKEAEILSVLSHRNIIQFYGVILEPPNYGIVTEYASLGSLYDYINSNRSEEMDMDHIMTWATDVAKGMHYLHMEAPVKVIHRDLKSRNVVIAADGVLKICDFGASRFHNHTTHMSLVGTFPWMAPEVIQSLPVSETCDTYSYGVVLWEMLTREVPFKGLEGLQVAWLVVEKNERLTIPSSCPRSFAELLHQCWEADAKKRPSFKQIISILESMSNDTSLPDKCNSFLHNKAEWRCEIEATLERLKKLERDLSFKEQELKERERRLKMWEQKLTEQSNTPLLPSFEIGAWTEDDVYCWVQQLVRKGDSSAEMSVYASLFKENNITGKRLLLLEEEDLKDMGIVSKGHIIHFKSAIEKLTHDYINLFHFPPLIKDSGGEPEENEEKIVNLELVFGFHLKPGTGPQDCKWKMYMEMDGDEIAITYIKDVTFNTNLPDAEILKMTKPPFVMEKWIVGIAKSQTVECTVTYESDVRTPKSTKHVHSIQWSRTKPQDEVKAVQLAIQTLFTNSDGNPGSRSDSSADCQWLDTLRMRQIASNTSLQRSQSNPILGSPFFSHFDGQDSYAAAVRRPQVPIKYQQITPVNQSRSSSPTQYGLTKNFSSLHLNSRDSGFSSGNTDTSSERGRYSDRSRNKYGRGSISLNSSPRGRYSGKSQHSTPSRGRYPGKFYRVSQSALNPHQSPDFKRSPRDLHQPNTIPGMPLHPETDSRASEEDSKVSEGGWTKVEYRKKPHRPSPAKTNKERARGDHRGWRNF
# assay summary: Inhibition of ZAK (unknown origin) expressed in human HEK293 cells incubated for 2 hrs followed by NanoBRET NanoGlo Substrate addition by NanoBRET assay
recorded metric: pIC50
Schema: pIC50 number; meaning minus log10 of the concentration expressed in molar units.

> print(dat)
                               entry.smiles  reported
1  Nc1c(C(=O)NCc2ccc(C(=O)NCCCC3CCCCC3)cc2)cnn1-c1ccccc1      6.04

Lab book: pIC50 of O=C(NCCCC1CCCCC1)c1ccc(CNC(=O)c2cnn(-c3ccccc3)c2C(F)(F)F)cc1 noted as 5.24
